Hello, the source for this data is patent US10124065B2, in case you need it.

The molecules listed here are annotated with their Size (nm).
# assay: Particle size of lipid nanoparticle (dynamic light scattering, Malvern Zetasizer)
# Format: physicochemical
# run.parameters: FVII siRNA LNP; Chol/DSPC/S010, molar ratio 45/44/9/2; Z-average
property.label: Size (nm)

# molecule, display.unit, measurement
measured = [
    ("CCCCC/C=C\\C/C=C\\CCCCCCCCOC(=O)CCCCOc1cc(CN(C)C)cc(OCCCCC(=O)OCCCCCCCC/C=C\\C/C=C\\CCCCC)c1 [Example 89]", "nm", 101.5),
    ("CCCCC/C=C\\C/C=C\\CCCCCCCC(=O)OCCCOc1cc(CN(C)C)cc(OCCCOC(=O)CC(CCCCCCCC)CCCCCCCC)c1 [Ex. 97]", "nm", 98.01),
    ("CCCCC/C=C\\C/C=C\\CCCCCCCC(=O)Oc1cc(COC(=O)CCN(C)C)cc(OC(=O)CCCCCCC/C=C\\C/C=C\\CCCCC)c1 [Example 26]", "nm", 121.6),
    ("CCCCCCCCOC(=O)CCCCCCCC(=O)OCCCOc1cc(CN(C)C)cc(OCCCOC(=O)CCCCCCCC(=O)OCCCCCCCC)c1 [Ex. 98]", "nm", 164.6),
    ("CCCCC/C=C\\C/C=C\\CCCCCCCCOc1cc(CN(C)C)cc(OCCCCCCCC/C=C\\C/C=C\\CCCCC)c1 [Example 2]", "nm", 92.85),
    ("CCCCC/C=C\\C/C=C\\CCCCCCCCOc1cc(COC(=O)CCN(C)C)cc(OCCCCCCCC/C=C\\C/C=C\\CCCCC)n1 [Example 31]", "nm", 81.16),
    ("CCCCC/C=C\\C/C=C\\CCCCCCCCOc1cc(COC(=O)CCN(C)C)cc(OCCCCCCCC/C=C\\C/C=C\\CCCCC)c1 [Example 14]", "nm", 81.74),
    ("CCCCCCCC/C=C\\CCCCCCCCOc1cc(CN(C)C)cc(OCCCCCCCC/C=C\\CCCCCCCC)c1 [Example 1]", "nm", 87.16),
    ("CCCCCCCCCC(=O)OCCCCCCCC(=O)OCc1cc(COC(=O)CCCCCCCOC(=O)CCCCCCCCC)cc(CN(C)C)c1 [Example 83]", "nm", 128.5),
    ("CCCCC/C=C\\C/C=C\\CCCCCCCC(=O)OCCCCOc1cc(CN(C)C)cc(OCCCCOC(=O)CCCCCCC/C=C\\CCCCCCCC)c1 [Example 63]", "nm", 91.66),
]

---

# assay: pKa measurement of cationic lipid (TNS fluorescence)
# Assay type: physicochemical
# run.parameters: probe TNS; pKa of the cationic lipid of formula (I); Table 4; read-out: pKa
Assign class by pKa: not lower than 6 means Fulfilled; lower than 6 means Not fulfilled.

# smiles.entry, label.value
records = [
    ("CCCCCCCCOC(CCCOc1cc(CN(C)C)cc(OCCCC(OCCCCCCCC)OCCCCCCCC)c1)OCCCCCCCC", "Not fulfilled"),
    ("CCCCCCCCCC(=O)OCCCCCCCCOc1cc(COC(=O)CCCN(C)C)cc(OCCCCCCCCOC(=O)CCCCCCCCC)c1", "Fulfilled"),
]

---

# assay: pKa measurement of cationic lipid (TNS fluorescence)
# Assay type: physicochemical
# run.parameters: probe TNS; pKa of the cationic lipid of formula (I); Table 4; read-out: pKa
Reported pKa by item:
property.label: pKa

# molecule, measurement
records = [
    ("CCCCCC(CCCCC)CCCCCCCC(=O)OCc1cc(COC(=O)CCCCCCCC(CCCCC)CCCCC)cc(CN(C)C)c1 [Ex. 119]", 5.84),
    ("CCCCCCC(CCCCCC)CCCCCC(=O)OCCCCOc1cc(CN(C)C)cc(OCCCCOC(=O)CCCCCC(CCCCCC)CCCCCC)c1 [Ex. 113]", 6.03),
    ("CCCCC/C=C\\CC=CCCCCCCCC(=O)OCCCCOc1cc(CN(C)C)cc(OCCCCOC(=O)CCCCCCCC=CC/C=C\\CCCCC)c1C [Example 51]", 5.91),
]
